- Test system: U2OS
- ASSAY_NOTES: Incucyte cell viability with U2OS; note: unitless GR value; below 1 slowed growth and below 0 cell loss
- Format: toxicity, cell-based
- RUN_CONDITIONS: human, 6 h, 10 µM, compound concentration 10 uM, replicate number 1
Below, each entry is listed alongside its reported Growth Rate.

MOLECULE	Growth Rate
COCCNc1nc2ccc(C#CC3(O)CCCCC3)cc2n1-c1ccnc(N)n1	0.44
CN1CCN([C@H]2CC[C@@H](n3cc(-c4ccc(Oc5ccccc5)cc4)c4c(N)ncnc43)CC2)CC1	-0.82
COc1ccc(N(C(=O)Nc2c(C)cccc2C)c2cc(Nc3ccc(N4CCN(C)CC4)cc3)ncn2)c(OC)c1	0.85
CN1CC(=O)N(C)c2cnc(Nc3ccc(NC(=O)Nc4cccc(C(=O)O)c4)cc3)nc21	0.82
O=C1COc2cc(C(=O)N(Cc3ccc(C(=O)Nc4ccncn4)cc3)C3CC3)ccc2N1	0.39
C#Cc1cnc2[nH]cc(-c3cccc4c3CCN4C(=O)[C@@H]3CCCN3C#N)c2c1	0.06
CC(C)c1cnc(NC(=O)Cc2ccccc2)s1	0.54
O[C@]1(C(F)(F)F)CCCC[C@H]1Nc1ccc(F)cc1	0.4
CN(CCCCCCC1=C(c2cc(F)cc(F)c2)CCCc2cc(O)ccc21)CCCCS(=O)(=O)CCCC(F)(F)F	-0.96
CC(C)[C@@H]1CC[C@@H](C)C[C@@H]1P(=O)(c1ccccc1)c1ccccc1	0.44
O=C1NCc2ccc3c(-c4cccc(Cl)c4)c[nH]c3c21	-0.34
CC1CCN(C(=O)[C@H](CCn2cccc2C#N)NS(=O)(=O)c2cccc3[nH]ccc23)CC1	0.98
C=CC(=O)Nc1cc(-c2nn(C3CCC(N4CCN(C(C)=O)CC4)CC3)c3ncnc(N)c23)ccc1Oc1ccccc1 (configuration not stated)	-0.85
CC(C)C[C@H](NC(=O)[C@@H](O)[C@H](N)Cc1ccccc1)C(=O)O	0.42
C=C1/C(=C\C=C2/CCC[C@]3(C)[C@@H]([C@H](C)CCCC(C)(C)O)CC[C@@H]23)C[C@@H](O)C[C@@H]1O	0.27
CCCCc1c(-c2ccccc2)nc(N)nc1-c1ccc(OCc2ccccc2)c(F)c1F	0.5
Cc1cccc(-c2nn(C(=S)Nc3ccccc3)cc2-c2ccnc3ccccc23)n1	0.88
O=C1CCC(N2Cc3cc(CNC(=O)C(F)(F)c4ccc(Cl)cc4)ccc3C2=O)C(=O)N1 (configuration not stated)	0.81
CN(C)CCOc1ccc(/C(=C(/CCCO)c2ccccc2)c2ccc(O)cc2)cc1	0.76
O=C(Cc1ccccc1)Nc1nnc(N2C[C@H]3C[C@@H]2CN3c2cccnn2)s1	0.82
CN1CCN(c2nc(N)c3ccccc3n2)CC1	0.43
O=C(O)CCCCN(CCc1ccccc1OCc1ccc(CCc2ccccc2)cc1)Cc1ccc(C(=O)O)cc1	0.32
Cc1cc(Nc2ncc(Cl)c(Nc3ccccc3S(=O)(=O)C(C)C)n2)c(OC(C)C)cc1C1CCNCC1	-0.98
CN1C(=O)Cc2ccc(-c3ccc(C[C@@H](C#N)NC(=O)[C@H]4N[C@@H]5CC[C@H]4C5)c(F)c3)cc21	0.49
Oc1c(-c2cccnc2)cnn1-c1ccccn1	0.87
Cc1n[nH]c2ncc(C(=O)N3CCC[C@H]3c3ccc(Cl)cc3)cc12	0.34
CC[C@@H](CO)Nc1nc(Nc2cccc(NC(=O)C(C)(C)C)c2)ncc1F	0.56
CS(=O)(=O)CCNCc1ccc(-c2ccc3ncnc(Nc4ccc(OCc5cccc(F)c5)c(Cl)c4)c3c2)o1	0.66
O=C1CSC(=O)N1C(CCc1ccncc1)COc1ccc(-c2cccc([N+](=O)[O-])c2)cc1 (configuration not stated)	0.3
O=c1[nH]c(CS[C@H]2CC[C@H](O)CC2)nc2cc(OCC3CC3)cc(F)c12	0.81
CCN(C(=O)CO)[C@H]1CN(/C(=N\C#N)Nc2cccc(OC(F)F)c2)N=C1c1ccc(Cl)c(Cl)c1	1
Cc1noc(C)c1-c1cnc2c(-c3ccc(C(=O)O)cc3)cn([C@@H](C)c3ccccn3)c2c1	0.16
CC1(C)C(=O)N([C@H]2CCc3c(O)cccc32)c2nc(Nc3cccc(CN4CCCC4)c3)ncc21	0.38
COc1cc(-c2nn([C@H]3CC[C@H](N4CCN(C(C)=O)CC4)CC3)c3ncnc(N)c23)ccc1NC(=O)c1cc2ccccc2n1C	0.32
COc1ccccc1C(=O)Nc1cccc(NC(=O)c2cccc(C)c2)c1	0.17
Cc1nccn1CC1CCc2c(c3ccccc3n2C)C1=O.Cl (configuration not stated)	0.77
CCCCC[C@H](O)/C=C/[C@H]1[C@H](O)CC(=O)[C@@H]1CCCCCCC(=O)O	0.87

----------
- Test system: U2OS
- ASSAY_NOTES: Incucyte cell viability with U2OS; note: unitless GR value; below 1 slowed growth and below 0 cell loss
- Assay type: toxicity, cell-based
- RUN_CONDITIONS: human, 18 h, 10 µM, compound concentration 10 uM, replicate number 2

MOLECULE	Growth Rate
Cc1[nH]nc(C(F)(F)F)c1Cc1sc2c(c1C(=O)N1C[C@](C)(O)CO1)c(=O)n(C)c(=O)n2C(C)C	0.69
COc1c(OCCCN2CCOCC2)ccc2c1N=C(NC(=O)c1cnc(N)nc1)N1CCN=C21	0.9
CCCCCN1C(=O)C2(COc3cc4c(cc32)OCO4)c2ccccc21 (stereo not drawn)	0.98
COc1ccc2nc3ccc(OC)cc3c(SCCCN)c2c1.Cl	0.99
CN(C)c1cc2c(Nc3ccc4c(cnn4Cc4ccccc4)c3)ncnc2cn1 [GW282974X]	0.91
COc1ccccc1C(=O)Nc1cccc(NC(=O)c2cccc(C)c2)c1	0.84
Cc1cc(Cn2c(N3CC4(CNC4)C3)nc3c(N4CCN(C)CC4)cc(Cl)cc32)cc(C)c1F	-0.84
N#Cc1ccc(C#CC[C@@H](C#N)NC(=O)[C@H]2CCCCN2)cc1F.O=C(O)C(F)(F)F	0.73
CN(C)C/C=C/C(=O)Nc1cc2c(Nc3ccc(F)c(Cl)c3)ncnc2cc1OC[C@@H]1CCCO1	-0.08
CC[C@@H]1C(=O)N(C)c2cnc(Nc3ccc(C(=O)NC4CCN(C)CC4)cc3OC)nc2N1C1CCCC1	0.42
N#Cc1ccc(C#CC[C@@H](C#N)NC(=O)[C@@H]2CCCCN2)cc1F	0.85
Cc1cc(NC(=O)c2cccc(NC(=O)/C=C/CN(C)C)c2)ccc1Nc1nccc(-c2cccnc2)n1	0.93
CN[C@@H]1CC[C@@H](c2ccc(Cl)c(Cl)c2)c2ccccc21.Cl	0.41
COc1c(NC(=O)c2cc3cccc(Oc4ccnc(C(=O)N5CCN(C)CC5)c4)c3n2C)cc(C(C)(C)C)cc1NS(C)(=O)=O	0.7
CO[C@H]1CC[C@H](N(c2cc(F)c(Oc3ncc(Cn4nccn4)cc3C(F)(F)F)cc2C(=O)O)C(=O)[C@H]2CC[C@H](C)CC2)CC1	1
Nc1nccc(-c2c(-c3ccc(F)cc3)ncn2C2CCN(Cc3ccon3)CC2)n1	0.72
COc1ccc(C(=O)N[C@H](C)c2cccc(C(=O)Nc3nc4c(s3)CN(C)CC4)c2)cc1C.O=C(O)C(F)(F)F	0.97
Cn1nccc1Nc1nccc(-c2cc3c(s2)C(C)(C)N(CCN2CCOCC2)C3=O)n1	0.82

----------
- Test system: HEK-293T
- ASSAY_NOTES: Incucyte cell viability with HEK293T; note: unitless GR value; below 1 slowed growth and below 0 cell loss
- Format: toxicity, cell-based
- RUN_CONDITIONS: human, 18 h, 10 µM, compound concentration 10 uM, replicate number 2
// classify: if (Growth Rate < 0.7) class 1 else class 0

SMILES_STRING	ASSIGNED_CATEGORY
S=c1[nH]nc(-c2cccs2)n1-c1ccccc1	class 0
CC[C@]1(C)C[C@@H](OC(=O)CSc2nnc(N)[nH]2)[C@@]2(C)[C@H](C)CC[C@@]3(CCC(=O)[C@H]32)[C@@H](C)[C@@H]1O	class 0
CN[C@@H](C)C(=O)N[C@H](C(=O)N1CCC[C@H]1C(=O)N[C@H]1c2ccccc2C[C@H]1OCC#CC#CCO[C@@H]1Cc2ccccc2[C@@H]1NC(=O)[C@@H]1CCCN1C(=O)[C@@H](NC(=O)[C@H](C)NC)C1CCCCC1)C1CCCCC1	class 1
CCc1cncnc1N1CCN(Cc2nc3cc(C(F)(F)F)ccc3[nH]2)CC1	class 1
C[C@@H](NC(=O)Cc1ccc(C2CC2)cc1)c1ccc(OCC(F)(F)F)cn1	class 1
COc1cc(F)ccc1-c1ncnc(Nc2cccc(C[S@](C)(=N)=O)c2)n1	class 1
CC[C@H](CC(=O)O)n1c(=O)c2ncccc2n(Cc2cn(C)c3cc(C)cc(C)c23)c1=O	class 1

----------
- System: U2OS
- ASSAY_NOTES: Incucyte cell viability with U2OS; note: unitless GR value; below 1 slowed growth and below 0 cell loss
- Type: toxicity, cell-based
- RUN_CONDITIONS: human, 12 h, 10 µM, compound concentration 10 uM, replicate number 2
Below, each entry is listed alongside its reported Growth Rate.

COMPOUND	Growth Rate
O=c1[nH]c(CS[C@H]2CC[C@H](O)CC2)nc2cc(OCC3CC3)cc(F)c12	0.73
COc1cc(C)c(S(=O)(=O)N(C)CCC(=O)N[C@H]2CC[C@@H](N3CCC4CN(C)CC4C3)CC2)c(C)c1.Cl.Cl (some centres undefined)	0.88
O=C(O)C[C@H]1CC[C@H](c2ccc(NC(=O)c3nnc(Nc4ccc(F)c(F)c4)o3)cc2)CC1	0.72
CCn1c(CNC(=O)c2ncc(C)nc2N)[n+](CC)c2ccc(C(=O)N(C)CCN(C)C)cc21.Cl.Cl.[Cl-]	0.9
